Entries and their Population Healthy Nuclei (%)
System: U2OS
Test: Multiplex assay against U2OS
Assay type: toxicity, cell-based
Conditions: human, 48 h, 1 µM, compound concentration 1 uM, replicate 2
property-name: Population Healthy Nuclei (%)

>>> measured("O=C(O)c1ccc2cc(-c3ccc(O)c(C45CC6CC(CC(C6)C4)C5)c3)ccc2c1")
"80%"
>>> measured("CCn1c(-c2nonc2N)nc2cnc(Oc3cccc(NC(=O)c4ccc(OCCN5CCOCC5)cc4)c3)cc21 [GSK-269962A]")
"81%"
>>> measured("COc1cc2c(NC3CCN(C(C)C)CC3)nc(N3CCC(F)(F)CC3)nc2cc1OCCCN1CCCC1")
"78%"
